Please provide measured growth for the entries that follow.
test system: CAKI-1 renal; test: NCI-60 one-dose screen, 48 h (100 = growth as untreated, 0 = no growth, -100 = all killed); settings: 10 µM unless noted
Compounds without any hit were thinned out: in the full panel of roughly 83,000, 20% have a hit. Activity calls are given as the source filed them. Rule for the calls: active = growth percent below 10; inactive = the rest.

Could you share which growth value was measured for `O=C1CN(Cc2ccc(C(=O)NO)cc2)C(=O)[C@@H](Cc2ccccc2)N1` ?
94.1% (inactive)

Given the entry `COc1cc(-c2cc(-c3ccc(Nc4ncnc5cc(Cl)ccc45)cc3)nc(N3CCCCC3)n2)cc(OC)c1OC` , report its measured growth.
93.1% (inactive)

Could you share which growth value was measured for `Nc1nnc(CSc2nnc3n(Cc4ccccc4)c(=O)c4c5c(sc4n23)CCCC5)s1` ?
10% (inactive)

Please give the measured growth for this compound: `O=C(Nc1ccc(C(=O)/C=C/c2ccc(N3CCOCC3)cc2)cc1)Nc1ccc([N+](=O)[O-])cc1`
82.6% (inactive)

Using the record for `COc1ccc(-c2c(C)nn3c(NCCN4CCOCC4)cc(C)nc23)cc1OC` , report its growth.
75.2% (inactive)

Returns the measured growth for the input compound. Input: CC1(C(=O)O)CCC(N)(C(=O)O)C1(C)C (configuration not stated)
114% (inactive)

What measured growth goes with `COc1ccc(/C=C/C(=C/c2c(O)[nH]c3cc(Br)ccc23)N=O)cc1` ?
93.1% (inactive)

State the recorded growth for this entry: `Cc1cc(C)c(S(=O)(=O)/N=c2/n(-c3ccccc3)nc3n2CCN3C2=NCCN2)c(C)c1`
74.4% (inactive)

Which growth is listed for `C#CCC(C(=O)OCC)C(=O)OCC` ?
93.6% (inactive)

Please give the measured growth for this compound: `COc1cc2c(cc1OCCCCCOc1ccc(-n3c(C)nc4ccccc4c3=O)cc1)N=C[C@@H]1CCCN1C2=O`
4.3% (active)

Which value of growth has been reported for `CC(=O)Nc1ccc2nc3ccc(NC(C)=O)cc3[n+](-c3ccccc3)c2c1` in the records?
122% (inactive)

Entry `c1cc2ccc1CNCCN1CCNCc3ccc(cc3)Oc3ccc(cc3)CNCCN(CCNCc3ccc(cc3)O2)CCNCc2ccc(cc2)Oc2ccc(cc2)CNCC1` has what growth?
47.5% (inactive)

Data request, read-out growth, for CCOC(=O)C(c1ccccc1)N1C(=O)c2ccccc2C1=O (configuration not stated)
86.4% (inactive)

# growth lookup, item `CCN=C1C=CC(=C(c2ccc(N(CC)CC)cc2)c2ccc(N(CC)CC)cc2)c2ccccc21`
-86.3% (active)

Given the entry `N#CCCc1c[nH]c2ccccc12` , report its measured growth.
87.3% (inactive)

Would you kindly share the measured growth for `CCn1cc(-c2[nH]c(=S)ncc2-c2ccc(Cl)cc2)c(-c2ccc(Br)cc2)n1` ?
98.5% (inactive)

Can you look up the measured growth of `Cc1ccc2c(c1)/C(=N\N=C/c1cn(C(C)C)c3ccccc13)C(=O)N2` for me?
64.4% (inactive)

Which measured growth value corresponds to `Nc1cccc2c1C(=O)c1cccc(NC(=O)c3ccccc3)c1C2=O` ?
12% (inactive)

Request the reported growth associated with `COc1ccc(C=C2c3ccccc3-c3ccccc32)cc1`
49% (inactive)

Find the recorded growth belonging to `CC(C)=CCC[C@](C)(O)[C@H]1CC[C@]2(C)[C@@H]1CC[C@@H]1[C@@]3(C)CC[C@H](OC(=O)CCC(=O)O)C(C)(C)[C@@H]3CC[C@]12C` and report it.
21.4% [100 µM] (inactive)

// lookup growth for CCOc1cccc2c(NC(C)CCCN(CC)CC)c(C)cnc12 (configuration not stated)
103% (inactive)

# query: growth of entry `C=C(C)[C@@H]1CC[C@]2(C)[C@H](CC[C@@H]3[C@@H]([C@@](C)(O)CCC=C(C)C)CC[C@]32C)[C@@]1(C)CCC(=O)N1CCN(C)CC1`
-90.7% [100 µM] (active)

Field request: growth | item: `COCCCNc1nc(NC(=O)c2cc(Br)cc(C(F)(F)F)c2)cc(-c2cccnc2)n1`
81.4% (inactive)

Consider the compound `CCN(CC)c1cc(N)c(Cc2c(N)cc(N(CC)CC)cc2Cl)c(Cl)c1` and give its measured growth.
65.7% (inactive)

Returns the measured growth for the input compound. Input: `O=[N+]([O-])c1cc(CCl)ccc1OCCBr`
92% (inactive)

# growth lookup, item `Cc1ccccc1OC(=O)c1cccc(Cl)c1`
109% (inactive)

Value lookup for growth; key = `COc1ccc2[nH]c(C(=O)N3CCN(C(=O)OCc4ccc5c(Br)cc(Br)c(O)c5n4)CC3)cc2c1`
-96% (active)

Fill blank: measured growth of the compound `Cc1cnc([C@]23CC[C@@H](C)[C@H](C)[C@H]2C2=CC[C@@H]4[C@@]5(C)Cc6c([nH]c7ccccc67)C(C)(C)[C@@H]5CC[C@@]4(C)[C@]2(C)CC3)o1` is ____.
49.7% [100 µM] (inactive)

Which growth reading was recorded for the compound `C[C@@H]1C[C@H]2C(=O)O[C@@H](C)[C@H](NC(=O)[C@H](Cc3cc(F)cc(F)c3)NC(=O)Nc3ccc(C4CC4)cc3F)C(=O)N3CCC[C@H]3C(=O)N3CCCC[C@H]3C(=O)N[C@@H](C)C(=O)N2C1` ?
8.8% (active)

// growth lookup, key: Fc1cc2[nH]ncc2c2c3c(c(-c4cn[nH]c4C(F)(F)F)nc12)C1CCC3C1 (configuration not stated)
-5.2% (active)

Endpoint output: growth of COc1ccc2nc3c(cc2c1)C(=O)CC(c1ccccc1)C3 (configuration not stated) . Value?
31.3% (inactive)

// query growth value for entry `Oc1cc(Nc2ccnc3cc(Cl)ccc23)c2ncccc2c1`
86.2% (inactive)

Param item = `O=C(CSc1nc2ccc([N+](=O)[O-])cc2[nH]1)Nc1ccc(F)c(Cl)c1` ; retrieve measured growth.
9.26% (active)

Which growth reading was recorded for the compound `O=S(=O)(NCCCNc1nccc(-c2c(-c3cccc(F)c3)nc3occn23)n1)c1cccc2ccccc12` ?
20.5% (inactive)

Quick one: growth for `CSc1nc2c(c(=O)n1C)C1(C(=O)N(Cc3ccccc3)c3ccccc31)c1c(nc(SC)n(C)c1=O)N2` ?
103% (inactive)

Requested read-out: growth. Entry: `COC(=O)[C@H](CC(C)C)NC(=O)NC(=O)NC(=O)CI`
-69.2% (active)

Return reported growth; argument: `CC(C)=CC/C=C(/C)[C@H]1CC[C@]2(C)[C@@H]1CC[C@@H]1[C@@]3(C)CCC(=O)NC(C)(C)[C@@H]3CC[C@]12C`
6.46% [100 µM] (active)
